Sourced from patent US20240034743A9

biological target: EGFR WT (wild type EGFR) (Homo sapiens (Human), UniProt P00533); experiment: In vitro enzymatic TR-FRET (HTRF KinEASE-TK) kinase assay, EGFR WT; assay type: biochemical; conditions: kinase activity, TR-FRET; read-out: EGFR (WT) IC50
Sequence (P00533 25-1210): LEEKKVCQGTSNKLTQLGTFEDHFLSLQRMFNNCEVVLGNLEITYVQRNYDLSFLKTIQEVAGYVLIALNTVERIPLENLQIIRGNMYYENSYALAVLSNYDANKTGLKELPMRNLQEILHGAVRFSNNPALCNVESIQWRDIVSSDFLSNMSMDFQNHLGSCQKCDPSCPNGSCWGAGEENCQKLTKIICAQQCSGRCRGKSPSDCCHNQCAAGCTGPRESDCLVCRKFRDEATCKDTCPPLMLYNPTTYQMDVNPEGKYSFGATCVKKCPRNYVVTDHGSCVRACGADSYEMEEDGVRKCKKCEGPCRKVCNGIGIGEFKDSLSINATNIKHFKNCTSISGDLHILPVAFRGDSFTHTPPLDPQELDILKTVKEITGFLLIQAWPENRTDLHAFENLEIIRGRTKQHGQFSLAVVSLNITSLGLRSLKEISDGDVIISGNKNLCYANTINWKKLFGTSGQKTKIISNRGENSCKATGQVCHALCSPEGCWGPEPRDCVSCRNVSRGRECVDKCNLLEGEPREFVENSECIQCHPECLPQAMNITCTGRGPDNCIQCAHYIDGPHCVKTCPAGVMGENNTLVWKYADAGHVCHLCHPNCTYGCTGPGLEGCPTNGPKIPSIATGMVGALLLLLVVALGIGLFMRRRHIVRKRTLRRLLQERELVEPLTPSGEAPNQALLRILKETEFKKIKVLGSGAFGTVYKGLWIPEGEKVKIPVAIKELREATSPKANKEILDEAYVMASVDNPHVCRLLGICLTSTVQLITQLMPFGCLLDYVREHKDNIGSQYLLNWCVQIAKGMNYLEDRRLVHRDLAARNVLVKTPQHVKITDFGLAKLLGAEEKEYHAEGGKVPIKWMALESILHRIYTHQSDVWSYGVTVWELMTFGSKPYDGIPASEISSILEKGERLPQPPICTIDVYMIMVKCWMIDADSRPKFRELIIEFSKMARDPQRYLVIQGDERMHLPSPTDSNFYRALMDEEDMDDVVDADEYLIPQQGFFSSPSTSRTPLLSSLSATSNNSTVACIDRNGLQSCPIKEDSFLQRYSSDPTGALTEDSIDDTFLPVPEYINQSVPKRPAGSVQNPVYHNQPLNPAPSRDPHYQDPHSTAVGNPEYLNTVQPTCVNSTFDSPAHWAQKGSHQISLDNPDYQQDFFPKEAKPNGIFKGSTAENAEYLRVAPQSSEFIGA
pIC50: −log10 of the molar value.
# Lookup of reported pIC50 keyed by entry

Return pIC50 for the following compound: COc1cc2c(cc1Nc1ncc(Br)c(Nc3ccnc(C)c3P(C)(C)=O)n1)-c1cnn(C)c1CCN2C(C)C
8.00 to 9.00

Dear colleague, please send me the reported pIC50 for COc1cc2c(cc1Nc1ncc(Br)c(Nc3ccc4nccnc4c3NS(C)(=O)=O)n1)-c1cnn(C)c1CCN2C(C)C when you can.
> 9.00

Name the recorded pIC50 of the compound listed here: COc1cc2c(cc1Nc1ncc(Br)c(Nc3ccccc3P(C)(C)=O)n1)-c1cnn(C)c1COC2
7.30 to 8.00

Name the recorded pIC50 of the compound listed here: COc1cc2c(cc1Nc1ncc(Br)c(Nc3ccccc3N(C)S(C)(=O)=O)n1)-c1cnn(C)c1CCN2C
8.00 to 9.00

Please list pIC50 recorded for the compound COc1cc2c(cc1Nc1nccc(Nc3ccccc3P(C)(C)=O)n1)-c1cnn(C)c1CCN2C
7.30 to 8.00

For the compound COc1cc2c(cc1Nc1ncc(Br)c(Nc3ccccc3P(C)(C)=O)n1)-c1cnn(C)c1CCN2C1CCN(C)CC1 , report pIC50.
8.00 to 9.00

Provide one value: measured pIC50 of COc1cc2c(cc1Nc1ncc(Br)c(Nc3ccccc3P(C)(C)=O)n1)-c1cnn(C)c1CCN2C1CCOCC1
8.00 to 9.00

State its pIC50: COc1cc2c(cc1Nc1ncc(Br)c(Nc3ccccc3P(C)(C)=O)n1)-c1ccnn1CCN2C
7.30 to 8.00

Retrieve pIC50 measured for COc1cc2c(cc1Nc1ncc(Br)c(Nc3ccccc3P(C)(C)=O)n1)-c1cnn(C)c1CC=C2 and print it.
7.30 to 8.00

Please give the documented pIC50 of COc1cc2c(cc1Nc1ncc(Br)c(Nc3ccc4nccnc4c3P(C)(C)=O)n1)-c1cnn(C)c1CC(O)C2 (stereo not shown)
8.00 to 9.00

In one line, give reported pIC50 of the entry COc1cc2c(cc1Nc1ncc(Br)c(Nc3ccccc3NS(C)(=O)=O)n1)-c1cnn(C)c1CCN2C(C)C .
8.00 to 9.00

Tell me its pIC50 given COc1cc2c(cc1Nc1ncc(Br)c(Nc3ccccc3P(C)(C)=O)n1)-c1cnn(C3CCN(C)CC3)c1CCN2C(C)C as the entry.
8.00 to 9.00

Read off the recorded pIC50 for COc1cc2c(cc1Nc1ncc(Br)c(Nc3ccc4nccnc4c3CNS(C)(=O)=O)n1)-c1cnn(C)c1CCN2C(C)C
8.00 to 9.00

Give pIC50 for COc1cc2c(cc1Nc1ncc(Br)c(Nc3ccncc3P(C)(C)=O)n1)-c1cnn(C)c1CCN2C(C)C
8.00 to 9.00

Supply pIC50 value. Item: COc1cc2c(cc1Nc1ncc(Br)c(Nc3ccccc3NS(C)(=O)=O)n1)-c1cnn(C)c1CCN2
6.00 to 7.00

Tell me measured pIC50 for COc1nc2c(cc1Nc1ncc(Br)c(Nc3ccc4nccnc4c3NS(C)(=O)=O)n1)-c1cnn(C)c1CCN2C please.
> 9.00
